All values here come from patent EP4818168A1.

target.system: AURKA (Homo sapiens)
Construct: endogenous in cells; host or cells: Jurkat cells
Assay type: cell-based
measurement.context: 1 µM compound, Jurkat cells, 24 h, Table 2
measured.parameter: Percentage of AURKA Degradation Induced by 1 µM Compound in Jurkat Cells

Some solved cases for reference:
[[record]]
compound = "O=C1CCN(c2cncc(N3CCN(CC4CN(c5cccc(Nc6ncc7c(n6)-c6ccc(Cl)cc6C(c6c(F)cccc6F)=NC7)c5)C4)CC3)c2)C(=O)N1"
target_system = "AURKA (Homo sapiens)"
observed_value = "+++ (Degradation > 70%)"

[[record]]
compound = "O=C1CCN(c2ccc(N3CCC(CN4CC(=O)N(C56CC(Nc7ncc8c(n7)-c7ccc(Cl)cc7C(c7c(F)cccc7F)=NC8)(C5)C6)C(=O)C4)CC3)nc2)C(=O)N1"
target_system = "AURKA (Homo sapiens)"
observed_value = "+++ (Degradation > 70%)"

[[record]]
compound = "O=C1CCN(c2cccc(N3CCC(CN4CC(c5cccc(Nc6ncc7c(n6)-c6ccc(Cl)cc6C(c6c(F)cccc6F)=NC7)c5)C4)CC3)c2)C(=O)N1"
target_system = "AURKA (Homo sapiens)"
observed_value = "+++ (Degradation > 70%)"

[[record]]
compound = "O=C1CCN(c2ccc(N3CCC(N4CCN(c5ccc(Nc6ncc7c(n6)-c6ccc(Cl)cc6C(c6c(F)cccc6F)=NC7)cn5)CC4)CC3)nc2)C(=O)N1"
target_system = "AURKA (Homo sapiens)"
observed_value = "+++ (Degradation > 70%)"

[[record]]
compound = "O=C1CCN(c2ccc(N3CC4(CC(N5CCN(c6ccc(Nc7ncc8c(n7)-c7ccc(Cl)cc7C(c7nccs7)=NC8)cc6)C(=O)C5)CO4)C3)nc2)C(=O)N1 (centres unmarked)"
target_system = "AURKA (Homo sapiens)"
observed_value = "+++ (Degradation > 70%)"


Query: Please supply the value of reported Percentage of AURKA Degradation Induced by 1 µM Compound in Jurkat Cells for the item O=C1CCN(c2ccc(N3CCC(O)(CN4CCN(c5ccc(Nc6ncc7c(n6)-c6ccc(Cl)cc6C(c6c(F)cccc6F)=NC7)cc5)CC4)CC3)nc2)C(=O)N1
Reply: +++ (Degradation > 70%)

Query: Please supply the value of reported Percentage of AURKA Degradation Induced by 1 µM Compound in Jurkat Cells for the item O=C1CCN(c2ccc(N3CCC4(CC3)CC(N3CCN(C56CC(Nc7ncc8c(n7)-c7ccc(Cl)cc7C(c7c(F)cccc7F)=NC8)(C5)C6)C(=O)C3)CO4)nc2)C(=O)N1 (centres unmarked)
Reply: +++ (Degradation > 70%)

Query: Please supply the value of reported Percentage of AURKA Degradation Induced by 1 µM Compound in Jurkat Cells for the item O=C1CCN(c2cccc(C3CN(CC#Cc4cccc(Nc5ncc6c(n5)-c5ccc(Cl)cc5C(c5c(F)cccc5F)=NC6)c4)C3)c2)C(=O)N1
Reply: + (Degradation ≤ 30%)

Query: Please supply the value of reported Percentage of AURKA Degradation Induced by 1 µM Compound in Jurkat Cells for the item O=C1CCN(c2ccc(N3CCN(CCN4Cc5cc(Nc6ncc7c(n6)-c6ccc(Cl)cc6C(c6c(F)cccc6F)=NC7)ccc5C4=O)CC3)cc2)C(=O)N1
Reply: + (Degradation ≤ 30%)

====

target.system: AURKA (Homo sapiens, UniProt O14965)
Construct: endogenous in cells; host or cells: Jurkat cells
Type: cell-based
measurement.context: 1 µM compound, Jurkat cells, 24 h, Table 2
From the text: WB is a classical biochemical experimental method used to detect the abundance of a target protein in a sample of cells or biological tissue. It relies on specific antigen-antibody binding to detect protein signals from the sample processed by gel electrophoresis: the protein specifically binds to a primary antibody at an epitope; the primary antibody is then conjugated with a secondary antibody to amplify the signal cascade; the signal is read out by chemiluminescent or fluorescent detection. […]
measured.parameter: Percentage of AURKA Degradation Induced by 1 µM Compound in Jurkat Cells

[[record]]
compound = "CP(C)(=O)c1ccc2c(c1)C(c1c(F)cccc1F)=NCc1cnc(Nc3ccc(N4CCN(C5CCN(c6ccc(N7CCC(=O)NC7=O)cn6)CC5)CC4=O)cc3)nc1-2"
observed_value = "+++ (Degradation > 70%)"

[[record]]
compound = "N#Cc1nc(N2CCN(C(=O)C3CCN(c4ccc(Nc5ncc6c(n5)-c5ccc(Cl)cc5C(c5c(F)cccc5F)=NC6)cc4)CC3)CC2)ccc1N1CCC(=O)NC1=O"
observed_value = "+++ (Degradation > 70%)"

[[record]]
compound = "O=C1CCN(c2ccc(N3CCOC(CN4CCN(C56CC(Nc7ncc8c(n7)-c7ccc(Cl)cc7C(c7c(F)cccc7F)=NC8)(C5)C6)C(=O)C4)C3)nc2)C(=O)N1 (centres unmarked)"
observed_value = "+++ (Degradation > 70%)"

[[record]]
compound = "O=C1CCN(c2ccc(N3CCC(Cn4cnc(-c5ccc(Nc6ncc7c(n6)-c6ccc(Cl)cc6C(c6c(F)cccc6F)=NC7)cc5)c4)CC3)nc2)C(=O)N1"
observed_value = "+++ (Degradation > 70%)"


====

experiment.description: Mouse PK study
Type: in vivo
measurement.context: mouse, plasma; IV 1 mg/kg, male CD1 mice; read-out: CLp
measured.parameter: clearance

[[record]]
compound = "O=C1CCN(c2ccc(N3CCO[C@H](C(=O)N4CCN(c5ccc(Nc6ncc7c(n6)-c6ccc(Cl)cc6C(c6c(F)cccc6F)=NC7)cc5)CC4)C3)nc2)C(=O)N1 [Compound A307]"
observed_value = "6.33 mL/min/kg"


Next item in the queue.
Query: Please supply the value of reported clearance for the item O=C1CCN(c2ccc(N3CCC4(CC3)CC(N3CCN(C56CC(Nc7ncc8c(n7)-c7ccc(Cl)cc7C(c7c(F)cccc7F)=NC8)(C5)C6)C(=O)C3)CO4)nc2)C(=O)N1 (centres unmarked) [Compound A321]
Reply: 6.16 mL/min/kg

====

target.system: AURKA (Homo sapiens, UniProt O14965)
Construct: endogenous in cells; host or cells: Jurkat cells
Type: cell-based
measurement.context: 100 nM compound, Jurkat cells, 24 h, Table 2
measured.parameter: Percentage of AURKA Degradation Induced by 100 nM Compound in Jurkat Cells

Some solved cases for reference:
[[record]]
compound = "O=C1CCN(c2ccc(N3CCC(C(=O)N4CCN(c5ccc(Nc6ncc7c(n6)-c6ccc(Cl)cc6C(c6c(F)cccc6F)=NC7)cc5)CC4)CC3)nc2)C(=O)N1 [Compound A229]"
observed_value = "+++ (Degradation > 70%)"

[[record]]
compound = "O=C1CCN(c2ccc(N3CCC(Cn4cnc(-c5ccc(Nc6ncc7c(n6)-c6ccc(Cl)cc6C(c6c(F)cccc6F)=NC7)cc5)c4)CC3)nc2)C(=O)N1 [Compound A159]"
observed_value = "+++ (Degradation > 70%)"

[[record]]
compound = "NC(=O)c1cc(N2CCN(C(=O)C3CCN(c4ccc(Nc5ncc6c(n5)-c5ccc(Cl)cc5C(c5c(F)cccc5F)=NC6)cc4)CC3)CC2)ncc1N1CCC(=O)NC1=O [Compound A334]"
observed_value = "+ (Degradation ≤ 30%)"

[[record]]
compound = "O=C1CCN(c2cccc(N3CCN(CC#Cc4ccc(Nc5ncc6c(n5)-c5ccc(Cl)cc5C(c5c(F)cccc5F)=NC6)cc4)CC3)c2)C(=O)N1 [Compound A123]"
observed_value = "+ (Degradation ≤ 30%)"

[[record]]
compound = "O=C1CCN(c2ccc(N3CCC(O)(CN4CCN(c5ccc(Nc6ncc7c(n6)-c6ccc(Cl)cc6C(c6c(F)cccc6F)=NC7)cc5)CC4)CC3)nc2)C(=O)N1 [Compound A264]"
observed_value = "+++ (Degradation > 70%)"

[[record]]
compound = "O=C1CCN(c2ccc(N3CCN(C(=O)C4CN(c5ccc(Nc6ncc7c(n6)-c6ccc(Cl)cc6C(c6c(F)cccc6F)=NC7)cc5)CCO4)CC3)nc2)C(=O)N1 (centres unmarked) [Compound A308]"
observed_value = "+++ (Degradation > 70%)"

[[record]]
compound = "COc1cccc(F)c1C1=NCc2cnc(Nc3ccc(N4CC(CN5CCN(c6ccc(N7CCC(=O)NC7=O)cn6)CC5)C4)cc3)nc2-c2ccc(Cl)cc21 [Compound A253]"
observed_value = "+++ (Degradation > 70%)"


Next item in the queue.
Query: Please supply the value of reported Percentage of AURKA Degradation Induced by 100 nM Compound in Jurkat Cells for the item O=C1CCN(c2ccc(N3CCC4(CC3)CC(N3CCN(c5ccc(Nc6ncc7c(n6)-c6ccc(Cl)cc6C(c6nccs6)=NC7)cc5)CC3)CO4)nc2)C(=O)N1 (centres unmarked) [Compound A345]
Reply: +++ (Degradation > 70%)

====

target.system: AURKA (Homo sapiens, UniProt O14965)
Construct: endogenous in cells; host or cells: Jurkat cells
Sequence (O14965 1-403): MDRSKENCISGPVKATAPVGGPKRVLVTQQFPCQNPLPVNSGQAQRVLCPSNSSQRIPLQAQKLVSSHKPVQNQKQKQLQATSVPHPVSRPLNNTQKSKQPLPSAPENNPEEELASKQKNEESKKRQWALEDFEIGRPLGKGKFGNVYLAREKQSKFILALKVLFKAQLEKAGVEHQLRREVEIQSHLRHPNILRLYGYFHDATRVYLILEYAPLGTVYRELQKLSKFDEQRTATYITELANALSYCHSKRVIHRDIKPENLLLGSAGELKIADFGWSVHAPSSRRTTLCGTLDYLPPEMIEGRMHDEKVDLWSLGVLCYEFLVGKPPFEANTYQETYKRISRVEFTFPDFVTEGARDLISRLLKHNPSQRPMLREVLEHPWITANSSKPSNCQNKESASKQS
Format: cell-based
measurement.context: 1 µM compound, Jurkat cells, 24 h, Table 2
measured.parameter: Percentage of AURKA Degradation Induced by 1 µM Compound in Jurkat Cells

[[record]]
compound = "O=C1CCN(c2cccc(N3CC(C(=O)N4CCOc5ccc(Nc6ncc7c(n6)-c6ccc(Cl)cc6C(c6c(F)cccc6F)=NC7)cc5C4)C3)c2)C(=O)N1 [Compound A235]"
observed_value = "+ (Degradation ≤ 30%)"

[[record]]
compound = "O=C1CCN(c2ccc(N3CCN(C(=O)N4CCN(c5ccc(Nc6ncc7c(n6)-c6ccc(Cl)cc6C(c6c(F)cccc6F)=NC7)cc5)CC4)CC3)nc2)C(=O)N1 [Compound A258]"
observed_value = "+++ (Degradation > 70%)"

[[record]]
compound = "O=C1CCN(c2ccc(N3CCC4(CC3)CN(CC3CN(c5ccc(Nc6ncc7c(n6)-c6ccc(Cl)cc6C(c6c(F)cccc6F)=NC7)cc5)C3)CCO4)nc2)C(=O)N1 [Compound A353]"
observed_value = "+++ (Degradation > 70%)"

[[record]]
compound = "N#Cc1cc(N2CCC(=O)NC2=O)cnc1N1CCN(C(=O)C2CCN(c3ccc(Nc4ncc5c(n4)-c4ccc(Cl)cc4C(c4c(F)cccc4F)=NC5)cc3)CC2)CC1 [Compound A326]"
observed_value = "+++ (Degradation > 70%)"

[[record]]
compound = "O=C1CCN(c2ccc(N3CCC(C4CN(C(=O)C56CC(Nc7ncc8c(n7)-c7ccc(Cl)cc7C(c7c(F)cccc7F)=NC8)(C5)C6)C4)CC3)nc2)C(=O)N1 [Compound A293]"
observed_value = "+++ (Degradation > 70%)"


Query: Please supply the value of reported Percentage of AURKA Degradation Induced by 1 µM Compound in Jurkat Cells for the item O=C1CCN(c2ccc(N3CCC4(CC3)CC(N3CCC(c5ccc(Nc6ncc7c(n6)-c6ccc(Cl)cc6C(c6c(F)cccc6F)=NC7)cc5)C(F)(F)C3)CO4)nc2)C(=O)N1 (centres unmarked) [Compound A351]
Reply: +++ (Degradation > 70%)

Query: Please supply the value of reported Percentage of AURKA Degradation Induced by 1 µM Compound in Jurkat Cells for the item Cc1c(N2CC(CN3CCc4ccc(Nc5ncc6c(n5)-c5ccc(Cl)cc5C(c5c(F)cccc5F)=NC6)cc4C3)C2)cccc1N1CCC(=O)NC1=O [Compound A176]
Reply: +++ (Degradation > 70%)

Query: Please supply the value of reported Percentage of AURKA Degradation Induced by 1 µM Compound in Jurkat Cells for the item O=C1CCN(c2cccc(C3CCN(CCOc4cccc(Nc5ncc6c(n5)-c5ccc(Cl)cc5C(c5c(F)cccc5F)=NC6)c4)C3)c2)C(=O)N1 (centres unmarked) [Compound A144]
Reply: + (Degradation ≤ 30%)
